Measured values drawn from ChEMBL document CHEMBL2218924 for this set.

Tested on: Mitogen-activated protein kinase kinase kinase 5 (Homo sapiens)
Sequence (whole entry): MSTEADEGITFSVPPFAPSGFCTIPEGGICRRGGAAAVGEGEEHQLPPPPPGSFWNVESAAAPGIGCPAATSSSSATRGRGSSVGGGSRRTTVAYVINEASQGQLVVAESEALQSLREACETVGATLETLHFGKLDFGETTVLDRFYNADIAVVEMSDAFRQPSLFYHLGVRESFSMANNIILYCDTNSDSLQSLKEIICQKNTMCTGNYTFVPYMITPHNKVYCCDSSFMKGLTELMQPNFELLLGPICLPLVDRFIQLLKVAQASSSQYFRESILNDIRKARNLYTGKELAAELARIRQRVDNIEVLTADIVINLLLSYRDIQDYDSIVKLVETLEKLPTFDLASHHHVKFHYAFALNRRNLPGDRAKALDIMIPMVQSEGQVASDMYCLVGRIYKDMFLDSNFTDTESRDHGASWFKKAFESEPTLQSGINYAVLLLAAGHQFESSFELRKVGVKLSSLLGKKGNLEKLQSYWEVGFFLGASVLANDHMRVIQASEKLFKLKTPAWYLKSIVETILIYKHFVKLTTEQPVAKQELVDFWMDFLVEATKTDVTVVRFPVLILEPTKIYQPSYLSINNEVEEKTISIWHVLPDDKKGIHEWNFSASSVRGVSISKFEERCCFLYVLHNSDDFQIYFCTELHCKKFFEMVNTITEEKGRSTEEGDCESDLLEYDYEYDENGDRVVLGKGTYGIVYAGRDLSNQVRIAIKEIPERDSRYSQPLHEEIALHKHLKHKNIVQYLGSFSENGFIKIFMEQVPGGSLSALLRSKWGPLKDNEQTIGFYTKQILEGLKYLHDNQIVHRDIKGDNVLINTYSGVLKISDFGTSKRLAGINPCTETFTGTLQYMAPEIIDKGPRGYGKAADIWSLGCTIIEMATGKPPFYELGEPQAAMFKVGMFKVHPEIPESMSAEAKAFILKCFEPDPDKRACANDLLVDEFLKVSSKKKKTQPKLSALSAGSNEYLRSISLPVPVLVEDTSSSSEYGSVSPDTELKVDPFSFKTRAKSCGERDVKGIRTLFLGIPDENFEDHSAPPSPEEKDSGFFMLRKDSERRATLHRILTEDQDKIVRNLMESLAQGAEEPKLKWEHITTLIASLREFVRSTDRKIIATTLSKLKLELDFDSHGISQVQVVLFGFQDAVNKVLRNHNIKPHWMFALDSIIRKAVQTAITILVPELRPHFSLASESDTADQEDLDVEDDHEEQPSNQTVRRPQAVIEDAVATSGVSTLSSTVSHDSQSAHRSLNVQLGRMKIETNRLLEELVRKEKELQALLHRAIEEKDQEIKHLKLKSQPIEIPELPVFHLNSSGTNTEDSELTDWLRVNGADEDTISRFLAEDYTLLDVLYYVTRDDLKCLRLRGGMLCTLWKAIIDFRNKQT
Condition notes: at 1 µM
# residual activity annotations
Put down the number, then write its unit next to it.

// below: answered compounds
Nc1ncnc2c1c(-c1ccc(Oc3ccccc3)cc1)cn2C1CCCC1; 90%
Nc1ncnc2c1cnn2-c1ccccc1; 100%
Fc1ccc(-c2nc3n(c2-c2ccncc2)CCS3)cc1; 96%
COc1cc2c(cc1OC)-c1n[nH]c(Nc3cccc(F)c3)c1C2; 74%
N#Cc1c(NC(=O)c2cccc3ccccc23)sc2c1CCCC2; 88%
O=C1Cc2c([nH]c3ccc([N+](=O)[O-])cc23)-c2ccccc2N1; 106%
CCCCc1c(-c2ccc(O)cc2)[nH]c2nccnc12; 93%
O=c1cc(N2CCOCC2)oc2c1ccc1ccccc12; 88%
NC(=O)c1cccc(-c2cc(Nc3ccc(OC(F)(F)F)cc3)ncn2)c1; 90%
O=C1NC(=O)c2c1c1c3ccccc3[nH]c1n1cncc21; 99%

In the following, a different compound is considered.
So for `O=C1C(Cl)=C(N2C(=O)CCC2=O)C(=O)c2ccccc21` , the logged residual activity turned out to be 89%
